Test system: Pseudomonas aeruginosa
protocol-summary: Antibacterial activity against Pseudomonas aeruginosa ATCC 27853 a after 24 hrs by micro broth dilution assay
Assay type: functional
measurement-context: ATCC 27853, 24 h
The entries below come with measured MIC values attached.

Below: 5 molecules and their reported MIC.
# structure-as-smiles, quantity-name, result
data = [
    ("O=c1c2ccc(F)cc2ncn1CCn1ccnc1", "MIC", "990 µM"),
    ("O=c1c2ccc(Cl)cc2ncn1CCCCCBr", "MIC", "> 1550 µM"),
    ("O=c1c2ccc(Cl)cc2ncn1CCn1cncn1", "MIC", "30 µM"),
    ("Cc1ncc([N+](=O)[O-])n1CCCCCCCCCCn1cnc2cc(F)ccc2c1=O", "MIC", "> 1190 µM"),
    ("O=c1c2ccc(Cl)cc2ncn1CCCCCCBr", "MIC", "> 1490 µM"),
]

Ask: Please report the recorded MIC for O=c1c2ccc(Cl)cc2ncn1CCBr .
Result: > 1780 µM

Ask: Please report the recorded MIC for CCn1cc(C(=O)O)c(=O)c2cc(F)c(N3CCNCC3)cc21 .
Result: 10 µM

Ask: Please report the recorded MIC for Cc1ncc([N+](=O)[O-])n1CCn1cnc2cc(F)ccc2c1=O .
Result: > 1610 µM

Ask: Please report the recorded MIC for Cc1ncc([N+](=O)[O-])n1CCn1cnc2cc(Cl)ccc2c1=O .
Result: > 1530 µM

Ask: Please report the recorded MIC for Cc1ncc([N+](=O)[O-])n1CCCCCCn1cnc2cc(F)ccc2c1=O .
Result: > 1370 µM

Ask: Please report the recorded MIC for O=c1c2ccc(Cl)cc2ncn1CCCCCCn1cnc([N+](=O)[O-])c1 .
Result: 340 µM

Ask: Please report the recorded MIC for Cc1ncc([N+](=O)[O-])n1CCCCCn1cnc2cc(F)ccc2c1=O .
Result: > 1420 µM

Reference source for all entries: ChEMBL document CHEMBL3621068
